Origin of measurements: paper PMC6325200

test system: E. coli ATCC 25922; assay: microbe, parasite or virus in culture; details: Escherichia coli, ATCC25922, Nunc flat TC plate; MHB −T80; n = 2
reported_metric: MIC

compound_smiles	result
Cc1onc(-c2ccccc2)c1C(=O)N[C@@H]1C(=O)N2[C@@H]1SC(C)(C)[C@@H]2C(=O)O	> 64 µg/mL
O=C(O)c1cn(C2CC2)c2cc(N3CCNCC3)c(F)cc2c1=O	≤ 0.03 µg/mL
CC1(C)S[C@@H]2[C@H](NC(=O)Cc3ccccc3)C(=O)N2[C@H]1C(=O)O	32 to 64 µg/mL

Data point: COc1cc(Cc2cnc(N)nc2N)cc(OC)c1OC ; MIC = 0.25 to 0.5 µg/mL

Data point: CO[C@H]1/C=C/O[C@@]2(C)Oc3c(C)c(O)c4c(O)c(c(/C=N/N5CCN(C)CC5)c(O)c4c3C2=O)NC(=O)/C(C)=C\C=C\[C@H](C)[C@H](O)[C@@H](C)[C@@H](O)[C@@H](C)[C@H](OC(C)=O)[C@@H]1C ; MIC = 4 µg/mL
